Known Average (% positive control) of a selection of compounds
- Subject of test: NLRP3 inflammasome (Mus musculus, UniProt Q8R4B8)
- Construct: endogenous in cells; host or cells: primary mouse bone marrow-derived dendritic cells (BMDCs), LPS-primed
- Sequence (Q8R4B8 whole entry): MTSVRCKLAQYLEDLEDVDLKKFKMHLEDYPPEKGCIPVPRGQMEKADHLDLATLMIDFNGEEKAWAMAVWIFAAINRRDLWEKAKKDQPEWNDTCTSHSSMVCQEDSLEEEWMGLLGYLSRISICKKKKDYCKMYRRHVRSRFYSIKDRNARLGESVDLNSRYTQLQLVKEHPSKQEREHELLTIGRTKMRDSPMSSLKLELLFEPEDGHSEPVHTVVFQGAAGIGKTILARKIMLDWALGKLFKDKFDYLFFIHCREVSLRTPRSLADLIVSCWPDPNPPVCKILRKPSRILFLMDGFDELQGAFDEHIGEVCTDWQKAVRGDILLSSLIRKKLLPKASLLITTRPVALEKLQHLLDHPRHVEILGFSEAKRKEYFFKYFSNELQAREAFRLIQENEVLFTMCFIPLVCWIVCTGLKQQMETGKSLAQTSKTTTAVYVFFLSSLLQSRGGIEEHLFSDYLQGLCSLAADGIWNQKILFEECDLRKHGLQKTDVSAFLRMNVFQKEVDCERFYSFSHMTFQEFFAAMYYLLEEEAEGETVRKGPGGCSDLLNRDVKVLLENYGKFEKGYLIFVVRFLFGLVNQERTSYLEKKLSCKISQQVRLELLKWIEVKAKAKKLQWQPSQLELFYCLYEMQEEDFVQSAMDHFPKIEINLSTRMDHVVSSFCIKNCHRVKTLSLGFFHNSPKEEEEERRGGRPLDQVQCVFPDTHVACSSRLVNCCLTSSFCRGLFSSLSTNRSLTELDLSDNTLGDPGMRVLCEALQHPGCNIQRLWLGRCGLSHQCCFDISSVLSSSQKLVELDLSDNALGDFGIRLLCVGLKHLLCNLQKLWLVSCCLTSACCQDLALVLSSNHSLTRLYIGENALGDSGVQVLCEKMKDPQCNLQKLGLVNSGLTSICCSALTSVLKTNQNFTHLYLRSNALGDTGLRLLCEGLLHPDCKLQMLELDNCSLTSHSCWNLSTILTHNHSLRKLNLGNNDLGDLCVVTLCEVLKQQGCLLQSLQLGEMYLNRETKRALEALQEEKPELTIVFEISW
- Assay text: IL-1β release from LPS-primed BMDCs (ELISA) as readout of NLRP3 inflammasome activation
- Format: cell-based
- Test conditions: IL-1β; 25 μM; positive control EN22 25 μM
State the result as a value with its unit after it.

Here is how some compounds turned out for Average (% positive control).
O=C(NCc1ccccc1)NCc1ccc2ncccc2c1 [EN11-11, 3-benzyl-1-[(quinolin-6-yl)methyl]urea] :: 0.000 % positive control
O=C(NCCCc1ccccc1)Nc1ccc2ncccc2c1 :: 0.764 % positive control
O=C(Nc1ccccc1)Nc1ccc2ncccc2c1 :: 100.000 % positive control
O=C(NCc1ccccc1)Nc1ccc2ncccc2c1 :: 0.555 % positive control
O=C(Nc1ccc2ncccc2c1)NC1CCCCC1 :: 1.019 % positive control

[ask] Which measured Average (% positive control) value corresponds to `O=C(NCCc1ccccc1)Nc1ccc2ncccc2c1` ?
[reply] 0.000 % positive control

====

- Subject of test: NLRP3 inflammasome (Mus musculus, UniProt Q8R4B8)
- Construct: endogenous in cells; host or cells: primary mouse bone marrow-derived dendritic cells (BMDCs), LPS-primed
- Assay text: IL-1β release from LPS-primed BMDCs (ELISA) as readout of NLRP3 inflammasome activation
- Assay type: cell-based
- Test conditions: IL-1β; 100 μM; positive control EN22 25 μM
Value kind: Average (% positive control)
// return numeric value only (unit: % positive control, not printed)

[ask] Which measured Average (% positive control) value corresponds to `O=C(NCc1ccccc1)Nc1ccc2ncccc2c1` ?
[reply] 22.016

[ask] Which measured Average (% positive control) value corresponds to `O=C(NCCc1ccccc1)Nc1ccc2ncccc2c1` ?
[reply] 3.621

[ask] Which measured Average (% positive control) value corresponds to `O=C(NCCCc1ccccc1)Nc1ccc2ncccc2c1` ?
[reply] 20.130

[ask] Which measured Average (% positive control) value corresponds to `O=C(Nc1ccc2ncccc2c1)NC1CCCCC1` ?
[reply] 3.424

[ask] Which measured Average (% positive control) value corresponds to O=C(NCc1ccccc1)NCc1ccc2ncccc2c1 [EN11-11, 3-benzyl-1-[(quinolin-6-yl)methyl]urea] ?
[reply] 0.761

====

- Subject of test: NLRP3 inflammasome (Mus musculus)
- Construct: endogenous in cells; host or cells: primary mouse bone marrow-derived dendritic cells (BMDCs), LPS-primed
- Assay text: IL-1β release from LPS-primed BMDCs (ELISA) as readout of NLRP3 inflammasome activation
- Type: cell-based
- Test conditions: IL-1β; 18.75 μM; positive control EN22 18.75 μM
Where Average (% positive control) equals or exceeds 10 % positive control, the correct label is Satisfied; where it does not, the label is Not satisfied.

[ask] Determine whether measured Average (% positive control) meets or exceeds 10 % positive control for O=C(Nc1ccccc1Cl)Nc1ccc([N+](=O)[O-])cc1Cl [A.C2]
[reply] Not satisfied

[ask] Determine whether measured Average (% positive control) meets or exceeds 10 % positive control for O=C(Nc1cccc(Cl)c1)Nc1ccc([N+](=O)[O-])cc1Cl [TCMDC-143175]
[reply] Not satisfied

[ask] Determine whether measured Average (% positive control) meets or exceeds 10 % positive control for COc1ccc(NC(=O)Nc2ccc(-c3noc(CC4CCCN(Cc5cccc(F)c5C)C4)n3)cc2)cc1 (centres unmarked) [PM07]
[reply] Satisfied

[ask] Determine whether measured Average (% positive control) meets or exceeds 10 % positive control for Cc1c(F)cccc1CN1CCCC(Cc2nc(-c3ccc(NC(=O)Nc4ccccc4)cc3)no2)C1 (centres unmarked) [PM16]
[reply] Satisfied

[ask] Determine whether measured Average (% positive control) meets or exceeds 10 % positive control for O=C(Nc1ccccc1)Nc1ccc2ncccc2c1 [EN22, 1-phenyl-3-(quinolin-6-yl)urea]
[reply] Satisfied

====

- Subject of test: NLRP3 inflammasome (Mus musculus, UniProt Q8R4B8)
- Construct: endogenous in cells; host or cells: primary mouse bone marrow-derived dendritic cells (BMDCs), LPS-primed
- Assay text: IL-1β release from LPS-primed BMDCs (ELISA) as readout of NLRP3 inflammasome activation
- Format: cell-based
- Test conditions: IL-1β; 40 μM; positive control EN22
Value kind: Average (% positive control)
// return numeric value only (unit: % positive control, not printed)

O=C(Nc1ccccc1)Nc1ccc2ncc(Br)cc2c1 :: 76.971

[ask] Which measured Average (% positive control) value corresponds to `COc1ccc(NC(=O)Nc2ccc3ncccc3c2)cc1` ?
[reply] 135.661

[ask] Which measured Average (% positive control) value corresponds to `O=C(Nc1ccccc1)Nc1ccc2ncccc2n1` ?
[reply] 9.827

[ask] Which measured Average (% positive control) value corresponds to `N#Cc1ccc(NC(=O)Nc2ccc3ncccc3c2)cc1` ?
[reply] 30.877

====

- Subject of test: NLRP3 inflammasome (Mus musculus)
- Construct: endogenous in cells; host or cells: primary mouse bone marrow-derived dendritic cells (BMDCs), LPS-primed
- Assay text: IL-1β release from LPS-primed BMDCs (ELISA) as readout of NLRP3 inflammasome activation
- Format: cell-based
- Test conditions: IL-1β; 80 μM; positive control EN22
Known Average (% positive control) of a selection of molecules
// return numeric value only (unit: % positive control, not printed)

Here is how some molecules turned out for Average (% positive control).
COc1ccc(NC(=O)Nc2ccc3ncccc3c2)cc1 [JB010] :: 202.590
O=C(Nc1ccccc1)Nc1ccc2ncccc2n1 [JB002, 1-(1,5-naphthyridin-2-yl)-3-phenylurea] :: 25.697
O=C(Nc1ccccc1)Nc1ccc2ncc(Br)cc2c1 [JB004, 1-(3-bromoquinolin-6-yl)-3-phenylurea] :: 84.675

Now look at this entry.
[ask] Which measured Average (% positive control) value corresponds to N#Cc1ccc(NC(=O)Nc2ccc3ncccc3c2)cc1 [JB011, 1-(4-cyanophenyl)-3-(quinolin-6-yl)urea] ?
[reply] 38.413

====

- Subject of test: NLRP3 inflammasome (Mus musculus)
- Construct: endogenous in cells; host or cells: primary mouse bone marrow-derived dendritic cells (BMDCs), LPS-primed
- Assay text: IL-1β release from LPS-primed BMDCs (ELISA) as readout of NLRP3 inflammasome activation
- Assay type: cell-based
- Test conditions: IL-1β release; compound 50 μM; positive control nigericin 5 μM
Value kind: Average (% positive control)
// return numeric value only (unit: % positive control, not printed)

O=C(Nc1ccccc1)Nc1ccc(NC(=O)C(F)F)cc1 :: 10.857
Cc1cccc(NC(=O)Nc2ccccc2)c1 :: 1.368
COc1ccc(F)cc1NC(=O)NC(c1nc(-c2cccnc2)no1)C(C)C (stereo not drawn) :: 16.422
O=C1CN(c2ccccc2)C(=O)N1Cc1nc(-c2cccs2)no1 :: 4.526
Cc1ccc(-c2noc(CN3C(=O)CN(c4ccccc4)C3=O)n2)cc1 :: 6.538

[ask] Which measured Average (% positive control) value corresponds to CC(C)c1ccc(NC(=O)Nc2ccccc2)cc1 [L01.047, 1-phenyl-3-[4-(propan-2-yl)phenyl]urea] ?
[reply] 7.117

====

- Tested on: BMDCs
- Assay text: LDH release (lytic cell death, pyroptosis) from LPS-primed BMDCs
- Type: cell-based, mouse
- Test conditions: Mus musculus, BMDC, 75 μM; read-out: Average LDH release (% of max.)
Value kind: cytotoxicity at 75 µM (%)
// return numeric value only (unit: %, not printed)

Here is how some compounds turned out for cytotoxicity at 75 µM.
O=C(Nc1cc(Cl)cc(Cl)c1)Nc1ccc([N+](=O)[O-])cc1Cl :: 60.2
O=[N+]([O-])c1ccc(NC(=S)Nc2cccc(Cl)c2)c(Cl)c1 :: 25.8
Cc1c(F)cccc1NC(=O)Nc1cccc(Cl)c1 :: 34.1

Now look at this entry.
[ask] Which measured cytotoxicity at 75 µM value corresponds to `S=C(Nc1ccccc1)Nc1ccc2ncccc2c1` ?
[reply] 68.5

====

Known cytotoxicity at 50 µM of a selection of molecules
- System: BMDCs
- Assay text: LDH release (lytic cell death, pyroptosis) from LPS-primed BMDCs
- Assay type: cell-based, mouse
- Test conditions: Mus musculus, BMDC, single replicates; compound 50 μM; LPS-primed BMDCs; read-out: LDH release (% of max.)
State the result as a value with its unit after it.

Here is how some molecules turned out for cytotoxicity at 50 µM.
O=C(NCc1nc(-c2cccs2)no1)Nc1ccccc1 :: 6.79%
CN(C)Cc1ccc(NC(=O)Nc2ccccc2)cc1 :: 7.8%
Cc1ccc(NC(=O)Nc2ccccc2)cc1NC(=O)NC(C)C :: 24.4%
N#CCOc1ccc(NC(=O)Nc2ccccc2)cc1 :: 8.07%

[ask] Which measured cytotoxicity at 50 µM value corresponds to Cc1ccc(N2C(=O)N(Cc3nc(-c4ccc(F)cc4)no3)C(=O)C2C)cc1 (stereo not drawn) ?
[reply] 9.39%

[ask] Which measured cytotoxicity at 50 µM value corresponds to `O=C(Nc1ccccc1)Nc1ccc(N2CCCC2)cc1` ?
[reply] 15.2%
